Exercise: state measured enrichment ratio for each of the variants provided.
B1: PhoQ; a variant is named by its letters at X, in order, P23837 (parent)
chain: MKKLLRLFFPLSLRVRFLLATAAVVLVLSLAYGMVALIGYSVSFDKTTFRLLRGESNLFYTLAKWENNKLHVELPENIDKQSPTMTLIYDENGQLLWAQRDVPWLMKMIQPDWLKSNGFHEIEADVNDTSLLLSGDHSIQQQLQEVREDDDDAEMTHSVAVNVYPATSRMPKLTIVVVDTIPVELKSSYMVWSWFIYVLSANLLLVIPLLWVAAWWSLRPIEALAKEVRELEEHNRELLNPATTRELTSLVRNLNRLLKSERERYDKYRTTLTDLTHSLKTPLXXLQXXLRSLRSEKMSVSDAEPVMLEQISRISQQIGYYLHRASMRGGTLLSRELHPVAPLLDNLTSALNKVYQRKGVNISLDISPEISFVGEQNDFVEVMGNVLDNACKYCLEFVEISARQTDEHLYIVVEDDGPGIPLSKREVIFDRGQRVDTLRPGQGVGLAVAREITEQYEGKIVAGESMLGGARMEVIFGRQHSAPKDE

- Variants of: B1
- ASSAY_REMARKS: enrichment ratio after two sorts for PhoP signalling (ratio (wild type AVST 3.29)); higher = more functional
- MEASUREMENT_CONTEXT: with PhoP (E. coli)
The full ranking holds about 140,000 sequences; the median of “enrichment ratio after two sorts for PhoP signalling” is about 0, and the highest 2% start at about 11. The full list was thinned out, with the highest values kept by preference.

Some variants with recorded enrichment ratio:
{"MUTATIONS": "AKAM", "enrichment ratio": 13.1}
{"MUTATIONS": "QAWS", "enrichment ratio": 18.4}
{"MUTATIONS": "TCTC", "enrichment ratio": 11.4}
{"MUTATIONS": "QYLE", "enrichment ratio": "≤ 0.25"}
{"MUTATIONS": "ADAM", "enrichment ratio": 3.24}

Please give enrichment ratio, item by item, for the list that follows.
1. NELR
2. QAWL
3. QAWI
4. DRHH
5. MDFT
6. QGAE

*A*
1: ≤ 0.25; 2: 19.9; 3: ≤ 0.25; 4: ≤ 0.25; 5: ≤ 0.25; 6: ≤ 0.25

Parameter requested: enrichment ratio. Apply to each item below.
1. TCNK
2. ERET
3. NAGS

*A*
1: ≤ 0.25; 2: ≤ 0.25; 3: ≤ 0.25

Give me enrichment ratio for each of these variants, listed below.
1. TLAM
2. EFDW
3. FHIH
4. TCTE
5. KCTI
6. TCDW

*A*
1. 3.04
2. ≤ 0.25
3. ≤ 0.25
4. ≤ 0.25
5. ≤ 0.25
6. ≤ 0.25

State the recorded enrichment ratio for every item in the following list.
1. FNCT
2. AAAM

*A*
1. ≤ 0.25
2. 10.1

Reference for the values: a collection of fitness landscapes (doi:10.1126/science.1257360)
